biological target: DNA gyrase subunit B (Mycobacterium smegmatis, UniProt P0C559); assay: Inhibition of Mycobacterium smegmatis DNA gyrase-B ATPase activity
Sequence (P0C559 whole entry): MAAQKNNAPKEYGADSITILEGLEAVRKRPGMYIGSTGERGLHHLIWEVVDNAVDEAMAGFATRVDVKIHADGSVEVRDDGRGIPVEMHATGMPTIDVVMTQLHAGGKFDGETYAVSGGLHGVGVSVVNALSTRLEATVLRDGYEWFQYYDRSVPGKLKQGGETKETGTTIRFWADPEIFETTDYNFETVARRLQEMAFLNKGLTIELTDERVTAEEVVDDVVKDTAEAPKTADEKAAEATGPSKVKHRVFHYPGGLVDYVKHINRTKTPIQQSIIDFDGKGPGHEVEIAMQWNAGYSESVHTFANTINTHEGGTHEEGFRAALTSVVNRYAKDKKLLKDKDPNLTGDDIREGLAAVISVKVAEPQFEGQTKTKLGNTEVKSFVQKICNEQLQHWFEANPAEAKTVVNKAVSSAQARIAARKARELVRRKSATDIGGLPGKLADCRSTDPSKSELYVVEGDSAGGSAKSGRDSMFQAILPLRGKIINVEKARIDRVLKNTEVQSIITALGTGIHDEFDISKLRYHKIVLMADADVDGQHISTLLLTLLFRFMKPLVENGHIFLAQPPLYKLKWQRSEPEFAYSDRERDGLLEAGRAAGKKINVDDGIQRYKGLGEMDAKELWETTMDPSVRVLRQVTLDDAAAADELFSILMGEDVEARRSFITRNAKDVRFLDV
pIC50: −log10 of the molar value.
metric: pIC50

Suppose we examine the compound `N#Cc1ccc2ccc(=O)n(CCN3CCC(NCc4cc5c(cn4)OCCO5)CC3)c2c1` ; what pIC50 value has been reported?
< 4.00

Again, but for `N#Cc1ccc2ccc(=O)n(CCN3CCC(NCc4ccc5c(n4)NC(=O)CO5)CC3)c2c1`
< 4.00

And what about the compound `Cc1nc(CNC2CCN(CCn3c(=O)ccc4ccc(C#N)cc43)CC2)ccc1C#N` ?
< 4.00

Queued: `Cc1ncc(CNC2CCN(CCn3c(=O)ccc4ccc(C#N)cc43)CC2)cc1C#N`
< 4.00

What would you report for `COc1ccc2ccc(=O)n(CCN3CCC(NCc4ccc5c(n4)NC(=O)CO5)CC3)c2n1` ?
< 4.00

###

Please provide measured IC50 for the entries that follow.
target: DNA gyrase subunit A/DNA gyrase subunit B (Mycobacterium tuberculosis (strain ATCC 25618 / H37Rv), UniProt P9WG45+P9WG47); assay: Inhibition of Mycobacterium tuberculosis H37Rv DNA gyrase holoenzyme-mediated supercoiling of pBR322 DNA after 90 mins by agarose gel electrophoresis
Sequence (P9WG45 whole entry): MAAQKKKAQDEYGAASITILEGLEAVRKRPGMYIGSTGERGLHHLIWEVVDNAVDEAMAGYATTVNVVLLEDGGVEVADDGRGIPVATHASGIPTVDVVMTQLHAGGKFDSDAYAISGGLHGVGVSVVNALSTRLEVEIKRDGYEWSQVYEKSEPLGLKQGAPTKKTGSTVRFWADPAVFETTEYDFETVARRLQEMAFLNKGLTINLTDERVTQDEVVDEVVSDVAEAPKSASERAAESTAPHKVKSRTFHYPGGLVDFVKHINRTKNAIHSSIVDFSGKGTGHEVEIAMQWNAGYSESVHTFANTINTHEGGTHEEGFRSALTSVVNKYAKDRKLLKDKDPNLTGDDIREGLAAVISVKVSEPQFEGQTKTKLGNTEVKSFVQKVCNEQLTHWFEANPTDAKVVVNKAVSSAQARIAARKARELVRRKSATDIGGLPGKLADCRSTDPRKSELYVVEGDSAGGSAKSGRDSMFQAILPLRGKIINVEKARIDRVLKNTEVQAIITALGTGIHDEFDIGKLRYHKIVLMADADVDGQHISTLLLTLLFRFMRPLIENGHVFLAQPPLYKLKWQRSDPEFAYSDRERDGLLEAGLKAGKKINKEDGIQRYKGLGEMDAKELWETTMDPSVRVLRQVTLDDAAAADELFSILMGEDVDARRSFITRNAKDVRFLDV
Sequence (P9WG47 whole entry): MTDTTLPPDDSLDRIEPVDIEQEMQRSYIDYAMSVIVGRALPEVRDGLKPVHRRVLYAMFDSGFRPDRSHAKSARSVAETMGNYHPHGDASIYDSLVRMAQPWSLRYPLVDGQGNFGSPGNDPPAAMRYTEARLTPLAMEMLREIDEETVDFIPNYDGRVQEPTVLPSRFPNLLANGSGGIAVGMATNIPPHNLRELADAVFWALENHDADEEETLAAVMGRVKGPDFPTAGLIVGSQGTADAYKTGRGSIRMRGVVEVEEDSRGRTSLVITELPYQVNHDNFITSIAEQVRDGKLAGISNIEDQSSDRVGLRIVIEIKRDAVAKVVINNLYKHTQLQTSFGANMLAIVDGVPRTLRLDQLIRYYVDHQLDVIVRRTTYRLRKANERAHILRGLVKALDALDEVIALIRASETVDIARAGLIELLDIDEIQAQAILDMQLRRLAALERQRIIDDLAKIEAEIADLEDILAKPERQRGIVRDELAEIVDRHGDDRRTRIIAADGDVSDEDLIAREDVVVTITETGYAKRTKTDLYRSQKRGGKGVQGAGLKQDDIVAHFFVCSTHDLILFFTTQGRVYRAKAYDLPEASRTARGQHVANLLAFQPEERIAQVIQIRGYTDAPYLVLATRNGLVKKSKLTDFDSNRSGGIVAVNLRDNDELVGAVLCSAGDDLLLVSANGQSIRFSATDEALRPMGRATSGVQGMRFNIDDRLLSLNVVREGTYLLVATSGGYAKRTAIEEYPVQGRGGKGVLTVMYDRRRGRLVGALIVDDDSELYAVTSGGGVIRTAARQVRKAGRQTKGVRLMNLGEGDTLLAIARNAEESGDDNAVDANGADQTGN
Numeric only. Scale: nM

What value of measured IC50 is listed for `N#Cc1ccc2ccc(=O)n(CCN3CCC(NCc4cc5c(cn4)OCCO5)CC3)c2c1` ?
1050

Then what about the molecule `N#Cc1ccc2ccc(=O)n(CCN3CCC(NCc4ccc5c(n4)NC(=O)CO5)CC3)c2c1` ?
110

Next: `COc1cnc2ccc(=O)n(CCN3CC[C@@H](NCc4cnc(C)c(C#N)c4)[C@@H](F)C3)c2c1`
250

Again, but for `O=C1COc2ccc(CN[C@@H]3CCN(CCn4c(=O)ccc5ncc(F)cc54)C[C@@H]3F)nc2N1`
350

Another molecule: `COc1ccc2ccc(=O)n(CCN3CCC(NCc4ccc5c(n4)NC(=O)CO5)CC3)c2n1`
150

One more molecule: `COc1cnc2ccc(=O)n(CCN3CC[C@H](NCc4ccc5c(n4)NC(=O)CO5)[C@H](F)C3)c2c1`
170

And what about the molecule `O=C1COc2ccc(CN[C@H]3CCN(CCn4c(=O)ccc5ncc(F)cc54)C[C@H]3F)nc2N1` ?
240

Now this one: `COc1cc(C#N)c2ccc(=O)n(CCN3CCC(NCc4cnc(C)c(C#N)c4)CC3)c2c1`
65

Same thing, different molecule: `COc1cnc2ccc(=O)n(CCN3CCC(NCc4cnc(C)c(C#N)c4)CC3)c2c1`
140

Entry to check: `Cc1ncc(CNC2CCN(CCn3c(=O)ccc4ccc(C#N)cc43)CC2)cc1C#N`
250

###

assay: Oral bioavailability in rat at 40 mg/kg by LC-MS/MS analysis; assay type: ADME, organism-based; details: in vivo
metric: bioavailability (%)
Numbers only; they are read as %.

Query (compound): `N#Cc1ccc2ccc(=O)n(CCN3CCC(NCc4ccc5c(n4)NC(=O)CO5)CC3)c2c1` ; field requested: bioavailability
11

Now consider `COc1cnc2ccc(=O)n(CCN3CC[C@@H](NCc4cnc(C)c(C#N)c4)[C@@H](OC)C3)c2c1` .
73

Item: `COc1cnc2ccc(=O)n(CCN3CC[C@@H](NCc4cnc(C)c(C#N)c4)[C@@H](F)C3)c2c1`
52

Field entry: `COc1cc(C#N)c2ccc(=O)n(CCN3CCC(NCc4cnc(C)c(C#N)c4)CC3)c2c1`
59
